test: recombinant barcode read abundance after kanamycin selection (control-corrected) (log10(CPM+1)); higher = more efficient recombination; sequences stand for … in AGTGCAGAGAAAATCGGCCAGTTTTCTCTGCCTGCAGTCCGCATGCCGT…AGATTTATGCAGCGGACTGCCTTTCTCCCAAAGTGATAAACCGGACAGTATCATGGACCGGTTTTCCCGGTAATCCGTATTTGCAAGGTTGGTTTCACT; site = the 11-nt target;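 also: IS621 recombinase and bridge RNA in Escherichia coli cells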
Response key: Fulfilled means recombinant barcode read abundance (log10) >= 0.3; Not fulfilled means recombinant barcode read abundance (log10) < 0.3.

- Residue string: "GGTCCCACTTGGGTTCTAACCTGTTGCCT (site GGGCTCACTAG)"
  Discrete label: "Not fulfilled"
- Residue string: "TCAAGACCTTGGGTTCTAACCTGTTGCCG (site TCAAGACCTCG)"
  Discrete label: "Fulfilled"
- Residue string: "GAGTACACTTGGGTTCTAACCTGTTGCGC (site AGCGCGCCTCA)"
  Discrete label: "Not fulfilled"
- Residue string: "CTAAGCTCTTGGGTTCTAACCTGTTGCCT (site GTAAGCTCTAG)"
  Discrete label: "Not fulfilled"
- Residue string: "ACAAGGGCTTGGGTTCTAACCTGTTGCTG (site GAGGCTACTAT)"
  Discrete label: "Fulfilled"
- Residue string: "CTTGGGTCTTGGGTTCTAACCTGTTGCCT (site CTTGGGTCTAG)"
  Discrete label: "Fulfilled"
- Residue string: "CTAGTTGCTTGGGTTCTAACCTGTTGCAA (site CTAATTGCTTT)"
  Discrete label: "Not fulfilled"
- Residue string: "TCGTGCCCTTGGGTTCTAACCTGTTGCTT (site TCGTGCCCTAA)"
  Discrete label: "Not fulfilled"
- Residue string: "ATCATAGCTTGGGTTCTAACCTGTTGCGC (site ATCATAGCTGC)"
  Discrete label: "Fulfilled"

Just for reference, the supplement of paper PMC11208160 is where these values come from.
